System: A2780
Assay: Antiproliferative activity against human paclitaxel-resistant A2780/TAX cells assessed as cell viability incubated for 48 hrs by MTT assay
Type: functional, cell-based
Settings: A2780, 48 h
Where a name gives a salt, the structure may show the parent alone.
MEASURED_ENDPOINT: pIC50
FYI, pIC50 means -log10 of a concentration in mol per litre.

Query: Need pIC50, item CC[C@]1(O)C[C@H]2CN(CCc3c([nH]c4ccccc34)[C@@](C(=O)OC)(c3cc4c(cc3OC)N(C=O)[C@H]3[C@@](O)(C(=O)OC)[C@H](OC(C)=O)[C@]5(CC)C=CCN6CC[C@]43[C@@H]65)C2)C1
Result: 6.77

Query: Need pIC50, item C=C(c1cc(OC)c(OC)c(OC)c1)c1ccc(OC)c(O)c1NC(=O)CO
Result: 7.40

Query: Need pIC50, item COc1cccc2c1C(=O)c1c(O)c3c(c(O)c1C2=O)C[C@@](O)(C(=O)CO)C[C@@H]3O[C@H]1C[C@H](N)[C@H](O)[C@H](C)O1 [DOXORUBICIN HYDROCHLORIDE]
Result: 5.57
